B1: Osa-1-4 twister ribozyme (parent)
chain: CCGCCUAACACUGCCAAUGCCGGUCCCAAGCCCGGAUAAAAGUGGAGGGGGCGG

Variants of: B1
Assay: self-cleavage, relative activity (ratio to wild type); higher = more cleavage; co-transcriptional
Each record's self-cleavage is compared with class 1 = under 0.06, class 2 = from 0.06 up to 0.7, class 3 = 0.7 and over to give its class.

variant-notation	classification
C14A U24G	class 1
G42A G54A	class 3
G48A G51A	class 2
A39C G22C	class 1
G44U U37A	class 2
G23A G51U	class 2
A41U C52G	class 3
C20A G51U	class 2
C15U G30C	class 1
G23C G42U	class 1
G22A U37G	class 3
A40G U18A	class 3
G42U U18G	class 2
C33A G47C	class 1
A40C G42U	class 1
G19C G35U	class 2
A28U G19U	class 2
A39U C31G	class 2
